Test system: TK-10 renal
Assay: NCI tumour cell line growth inhibition, 48 h
Readout kind: TGI

>>> print(df.to_string())
                                   molecule    result
0  Nc1ccn(C2OC(C(OC3OC(CO)C(O)C(N)C3O)C(O)C(O)C(O)C(O)CO)C(N)C(O)C2O)c(=O)n1 (stereo not drawn)  > 100 µM
1  CN(C)/C=C/C=C(/C=N/S(=O)(=O)C(F)(F)F)C1C=CN(S(=O)(=O)C(F)(F)F)C=C1  > 100 µM

Consider now this further molecule.
Lab note: COCCN1C(=O)C2c3[nH]c4ccccc4c3C3CCC(C(C)(C)C)CC3C2C1=O (stereo not drawn) gave TGI of > 10 µM

====

Recorded measurements of TGI, one per entry
Tested on: RPMI-8226 leukemia
Assay: NCI tumour cell line growth inhibition, 48 h
# unit: µM | format: bare number

Before answering, review these 2 worked examples.
>>> df
                              sample_smiles  measured_number
0  Cc1ccc(/C=C2/N=C(N/N=C\c3ccccc3)NC2=O)cc1             48.3
1  Cc1cc2nc3c4ccc(Br)cc4n(CCN(C)C)c3nc2cc1C             5.93

Consider now this further compound.
Entry CCOC(=O)c1c(C)n(Cc2ccccc2)c2c1cc1oc(=O)c(=O)n3cnc2c13 under RPMI-8226 leukemia had TGI of 14.1

====

System: SK-MEL-2 melanoma
Experiment: NCI tumour cell line growth inhibition, 48 h
Readout kind: GI50

Before answering, review these 3 worked examples.
>>> df
                              sample_smiles     assayed_target  readout_kind     result
0  COc1cc2c(cc1OCCCOc1ccc(-c3nc4ccc(N5CCN(C)CC5)cc4[nH]3)cc1)N=C[C@@H]1CCCN1C2=O  SK-MEL-2 melanoma          GI50  < 0.01 µM
1  Cn1cc(C2=C(c3cn(CCCCC(=N)N)c4ccccc34)C(=O)NC2=O)c2ccccc21  SK-MEL-2 melanoma          GI50    12.6 µM
2  C/C(=N/O)c1ccc(Nc2cc(-n3ccnc3)c3ccccc3n2)cc1  SK-MEL-2 melanoma          GI50    38.5 µM

Consider now this further molecule.
Lab note: O=C(/C=C/c1ccc([N+](=O)[O-])cc1)c1cccc(Nc2nc(Nc3ccccc3)nc(Nc3ccccc3)n2)c1 gave GI50 of 17.7 µM

====

Test system: OVCAR-8 ovarian
Assay: NCI tumour cell line growth inhibition, 48 h
Recorded measurements of TGI, one per entry

Before answering, review these 2 worked examples.
                                   compound  readout_kind    result
0  Cc1noc(/N=C2\C=C(Nc3onc(C)c3C)C(=O)c3ccccc32)c1C           TGI  > 100 µM
1  CCCCCCCCCCCCCCCCCC(=O)NCC(COP(=O)(O)O)OCC (stereo not drawn)           TGI  > 100 µM

Consider now this further compound.
Lab note: CN/N=C(\C(=O)Nc1ccc(C)c(C)c1)C(C(=O)OC)c1nc2ccc([N+](=O)[O-])cc2[nH]c1=O (stereo not drawn) gave TGI of > 100 µM

====

Recorded measurements of GI50, one per entry
Test system: BT-549 breast
Assay: NCI tumour cell line growth inhibition, 48 h

Before answering, review these 5 worked examples.
In [3]: df
Out[3]:
                              sample_smiles  readout_kind    result
0  CCCN1CCC=C(c2ccc(Nc3nc(Nc4ccccc4C(N)=O)c4cc[nH]c4n3)c(C)c2)C1          GI50  17200 nM
1  Cc1c(Cl)cccc1NC(=O)c1sc2nc3c(cc2c1N)CCCC3          GI50    591 nM
2      O=C(C=C=Nc1ccccc1)C(=O)N=C=Cc1ccccc1          GI50   2590 nM
3  CCN(CC)Cc1cc(Nc2c3ccccc3nc3cc(Cl)ccc23)ccc1O          GI50   1950 nM
4  Nc1c(C(=O)Nc2cccc3ccccc23)sc2nc3c(cc12)C(=O)CCC3          GI50   3080 nM

Lab note: COc1ccc(C2=Nc3c/c(=C\c4c(O)[nH]c5cc(Cl)ccc45)ccc3=N2)cc1 gave GI50 of 3650 nM

====

Tested on: U251 CNS
Assay: NCI tumour cell line growth inhibition, 48 h
Recorded measurements of TGI, one per entry

                              sample_smiles  readout_kind     result
0  Cn1cc(C2=C(c3cn(CCCCC(=N)N)c4ccccc34)C(=O)NC2=O)c2ccccc21           TGI    > 25 µM
1    COC(=O)c1cc(/C=C\c2cc(OC)ccc2OC)ccc1OC           TGI   > 100 µM
2                       O=C1C=Cc2ncccc2C1=O           TGI  > 57.8 µM
3             Cc1c(O)c(=O)ccn1CCc1ccc(O)cc1           TGI   > 100 µM

Consider now this further molecule.
Lab note: CN1CCN(c2ccc3nc(-c4ccc(OCCCCN5CCN(CCCCN6C(=O)c7cccc8cccc(c78)C6=O)CC5)cc4)[nH]c3c2)CC1 gave TGI of > 100 µM

====

Recorded measurements of TGI, one per entry
Tested on: SF-268 CNS
Test: NCI tumour cell line growth inhibition, 48 h

In [3]: df
Out[3]:
                                   molecule    result
0  O=C(NCCCCCN1CCC2(CCCCC2)CC1)C(C1CCCCC1)C1CCCCC1   12.5 µM
1                   Cc1cc2ccc(N)nc2[nH]c1=O  > 100 µM
2             CC1=C(N2CC2)C(=O)c2ccccc2C1=O   5.14 µM

Consider now this further molecule.
Lab note: O=C(CCCCCCCCC(=O)N/N=C\c1cc(Cl)ccc1O)N/N=C\c1cc(Cl)ccc1O gave TGI of > 100 µM

====

Recorded measurements of TGI, one per entry
Tested on: NCI-H226 lung
Assay: NCI tumour cell line growth inhibition, 48 h

Lab note: COC1CC(OC2C(C)OC(OC3C(C)OC(OC4C(C)OC(O[C@H]5CC[C@@]6(C)C(=CC[C@]7(O)[C@@H]6C[C@@H](O)[C@@]6(C)[C@]7(O)CC[C@@]6(O)C(C)=O)C5)CC4OC)CC3OC)CC2OC)OC(C)C1O (stereo partly drawn) gave TGI of > 12.5 µM

Lab note: CCCCCCCCCCCCO[P+](=O)OCCCCCCCCCCCC gave TGI of > 100 µM

Lab note: CNC(c1ccncc1)C(NC)c1ccncc1 (stereo not drawn) gave TGI of > 100 µM

Lab note: C[C@H](CCC(=O)NCC(=O)O)[C@H]1CC[C@H]2[C@@H]3[C@H](O)C[C@@H]4C[C@H](O)CC[C@]4(C)[C@H]3CC[C@]12C gave TGI of > 100 µM

Lab note: COc1cccc(NC2=C(Cl)C(=O)N(Cc3ccc(Cl)cc3)C2=O)c1 gave TGI of 6.86 µM

Lab note: O=[N+]([O-])/C(C(Cl)=C(Cl)Cl)=C(/Nc1ccccc1)Sc1ccccc1 gave TGI of 40.1 µM

Lab note: CC(C)c1ccc(/C=C2\CSCC3=C2N=C2SCC(=O)N2C3c2ccc(C(C)C)cc2)cc1 (stereo not drawn) gave TGI of > 100 µM

Lab note: COc1ccc(NC(=O)C2C(=O)N(c3ccc(OC)cc3)C(=O)/C2=N\NC(N)=O)cc1 (stereo not drawn) gave TGI of 51.7 µM

Lab note: Cc1ccccc1NC(=O)Cc1csc(N=Nc2c(O)[nH]c3ccccc23)n1 gave TGI of > 100 µM

Lab note: O=C1c2cc([N+](=O)[O-])sc2C(=O)c2c([N+](=O)[O-])csc21 gave TGI of 3.8 µM

Lab note: C=CC[C@H](N=C(SC)SC)C(=O)N1C(=O)N(C)[C@@H](C)[C@H]1c1ccccc1 gave TGI of > 100 µM

Lab note: C=C1CC2[C@H](C)C(=O)CCC2(C)C2=C1C1CCC(C(C)CCC(=C)C(C)C(=O)O)C1(C)CC2=O (stereo partly drawn) gave TGI of > 100 µM

Lab note: N#C/C(=C\c1ccc2[nH]ccc2c1)C(=O)c1ccc(O)c(O)c1 gave TGI of > 100 µM

Lab note: O=[N+]([O-])C(C=C(n1nnc2ccccc21)n1nnc2ccccc21)=C(n1nnc2ccccc21)n1nnc2ccccc21 gave TGI of > 100 µM

Lab note: NC(=O)c1ccc(N(C(N)=O)c2c(F)cccc2F)nc1-c1ccc(F)cc1F gave TGI of > 100 µM

Lab note: Cc1ccc(/C=C2/N=C(N/N=C\c3ccccc3)NC2=O)cc1 gave TGI of > 100 µM

Lab note: Nc1cc2c3c(cccc3c1)C(=O)N(c1ccc(OCCN3CCCC3)cc1)C2=O gave TGI of 33.2 µM
